Overview of recorded RE^a for various compounds
- Target Or Test System: FXR (Homo sapiens, UniProt Q96RI1)
- Construct: using a full length FXR on a natural response element; expressed in transfected cells
- Sequence (Q96RI1 whole entry, species assumed): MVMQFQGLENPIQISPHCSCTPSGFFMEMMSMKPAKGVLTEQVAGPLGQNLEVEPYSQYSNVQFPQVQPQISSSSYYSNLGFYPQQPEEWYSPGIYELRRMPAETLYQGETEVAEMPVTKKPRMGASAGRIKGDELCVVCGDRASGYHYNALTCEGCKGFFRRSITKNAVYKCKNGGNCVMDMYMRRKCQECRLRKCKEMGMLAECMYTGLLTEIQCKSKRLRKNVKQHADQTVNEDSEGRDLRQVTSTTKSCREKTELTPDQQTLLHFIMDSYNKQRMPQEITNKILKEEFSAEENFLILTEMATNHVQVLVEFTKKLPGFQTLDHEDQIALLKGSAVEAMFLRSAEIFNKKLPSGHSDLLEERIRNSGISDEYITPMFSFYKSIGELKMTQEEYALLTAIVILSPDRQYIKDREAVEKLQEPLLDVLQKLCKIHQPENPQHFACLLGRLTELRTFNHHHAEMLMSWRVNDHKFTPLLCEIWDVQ
- Method: cell-based FXR transcription assay, FXR responsive promoter linked to luciferase reporter
- Condition Notes: cell-based FXR reporter assay; footnote a not given
Property: RE^a

1. COC(=O)/C=C/c1cccc(N(Cc2ccc(-c3cccc(C)c3)cc2)C(=O)C2CCCCC2)c1 1.43
2. CC(C)(C)OC(=O)C=Cc1ccc(CN(C(=O)C2CCCCC2)c2cccc(C=CC(N)=O)c2)cc1 0.50
3. COC(=O)C=Cc1cccc(N(Cc2ccc(C=Cc3ccc(OC)cc3)cc2)C(=O)C2CCCCC2)c1 1.67
4. CCOC(=O)C=Cc1ccc(CN(C(=O)C2CCCCC2)c2cccc(C=CC(=O)OC)c2)cc1 1.14
5. COC(=O)/C=C/c1cccc(N(Cc2ccc(-c3ccc(F)c(F)c3)cc2)C(=O)C2CCCCC2)c1 1.70
6. COC(=O)C=Cc1cccc(N(Cc2ccc(C=Cc3ccc(C(C)(C)C)cc3)cc2)C(=O)C2CCCCC2)c1 0.29
7. COC(=O)/C=C/c1cccc(N(Cc2ccc(-c3ccc4c(c3)OCO4)cc2)C(=O)C(C)C)c1 1.25

###

- Target Or Test System: FXR (Homo sapiens)
- Construct: using a full length FXR on a natural response element; expressed in transfected cells
- Method: cell-based FXR transcription assay, FXR responsive promoter linked to luciferase reporter
- Condition Notes: cell-based FXR reporter assay; determined with Prism 3.0
Overview of recorded EC50 for various compounds
Property: EC50 (nM)

1. COC(=O)C=Cc1cccc(N(Cc2ccc(C=Cc3cc(C(F)(F)F)cc(C(F)(F)F)c3)cc2)C(=O)C2CCCCC2)c1 1470
2. COC(=O)/C=C/c1cccc(N(Cc2ccc(/C=C/c3cccc(Cl)c3)cc2)C(=O)C(C)C)c1 164
3. COC(=O)/C=C/c1cccc(N(Cc2ccc(-c3ccccc3OC)cc2)C(=O)C2CCCCC2)c1 359

###

- Target Or Test System: FXR (Homo sapiens, UniProt Q96RI1)
- Construct: using a full length FXR on a natural response element; expressed in transfected cells
- Method: cell-based FXR transcription assay, FXR responsive promoter linked to luciferase reporter
- Condition Notes: cell-based reporter assay, SAR discussion
Property: FXR activation, in words

1) COC(=O)/C=C/c1cccc(N(Cc2ccc3c(c2OC)OC(C)(C)C=C3)C(=S)NCc2ccccc2)c1 inactive
2) CNC(=O)/C=C/c1cccc(N(Cc2ccc3c(c2OC)OC(C)(C)C=C3)C(=O)C2CC2)c1 inactive
3) COC(=O)/C=C/c1cccc(N(Cc2ccccc2)Cc2ccc3c(c2OC)OC(C)(C)C=C3)c1 inactive

###

- Tested on: IBABP mRNA in HT29-FXRFL cells
- Method: Northern blot of IBABP mRNA in HT29 stable cell lines
- Assay type: cell-based, Human
- Condition Notes: HT29-BABE or HT29-FXR-AF2 cell lines

Compound Structure String	induction of IBABP mRNA, in words
COC(=O)/C=C/c1cccc(N(Cc2ccc(-c3ccc4c(c3)OCO4)cc2)C(=O)C2CCCCC2)c1	No induction
COC(=O)/C=C/c1cccc(N(Cc2ccc(-c3ccc(N(C)C)cc3)cc2)C(=O)C2CCCCC2)c1	No induction
COC(=O)C=Cc1cccc(N(Cc2ccc(C=Cc3ccccc3)cc2)C(=O)C2CCCCC2)c1	No induction
